The molecules listed here are annotated with their pIC50.
Tested on: HCT-116
Test: Antiproliferative activity against human HCT116 cells
Type: functional, cell-based
Lab note — pIC50 values are minus log10 of concentrations in M.

The recorded pIC50 for Cc1cc(Nc2nc(Sc3ccc(NC(=O)CN4C[C@H](Oc5cc(F)cc(F)c5)[C@@H](O)C4)cc3)nn3cccc23)n[nH]1 is 8.15

* * *

Molecular target: Aurora kinase B (Homo sapiens, UniProt Q96GD4)
Sequence (Q96GD4 whole entry): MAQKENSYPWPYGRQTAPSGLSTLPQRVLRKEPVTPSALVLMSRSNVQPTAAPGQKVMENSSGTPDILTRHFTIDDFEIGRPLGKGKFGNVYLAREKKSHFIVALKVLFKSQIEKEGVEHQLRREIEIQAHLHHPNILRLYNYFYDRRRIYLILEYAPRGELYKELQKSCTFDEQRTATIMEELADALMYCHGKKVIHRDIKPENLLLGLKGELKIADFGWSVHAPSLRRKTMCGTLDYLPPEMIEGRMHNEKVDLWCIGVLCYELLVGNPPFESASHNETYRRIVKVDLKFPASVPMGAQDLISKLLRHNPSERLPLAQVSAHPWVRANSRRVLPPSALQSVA
Assay: Inhibition of Aurora B kinase assessed as reduction in histone H3 phosphorylation in human HCT116 cells
Below is a list of entries, each paired with its recorded IC50 value.
Answer in nM, number only, no unit symbol.

Worked set:
| Molecular string | IC50 (nM) |
| --- | --- |
| Cc1cc(Nc2nc(Sc3ccc(NC(=O)CN4C[C@H](OC(C)(C)C)[C@@H](O)C4)cc3)nn3cccc23)n[nH]1 | 16 |
| Cc1cc(Nc2nc(Sc3ccc(NC(=O)CN4C[C@H](SC(C)(C)C)C[C@H]4CO)cc3)nn3cccc23)n[nH]1 | 1790 |
| Cc1cc(Nc2nc(Sc3ccc(NC(=O)CN4C[C@H](OC(C)(C)C(F)(F)F)[C@@H](O)C4)cc3)nn3cccc23)n[nH]1 | 27 |
| Cc1cc(Nc2nc(Sc3ccc(NC(=O)C4CC4)cc3)nn3cc(NC(=O)CN4CCOCC4)cc23)n[nH]1 | 420 |
| Cc1cc(Nc2nc(Sc3ccc(NC(=O)CN4C[C@H](OC(C)C)[C@@H](O)C4)cc3)nn3cccc23)n[nH]1 | 23 |

Memo: Cc1cc(Nc2nc(Sc3ccc(NC(=O)CNC4CCCC4)cc3)nn3cccc23)n[nH]1 , reported IC50: 655

In plain terms, Cc1cc(Nc2nc(Sc3ccc(NC(=O)CN4C[C@H](Oc5ccc(F)cc5)[C@@H](O)C4)cc3)nn3cccc23)n[nH]1 has a documented IC50 of 44

Sample Cc1cc(Nc2nc(Sc3ccc(NC(=O)CN4C[C@H](OC5CCCC5)[C@@H](O)C4)cc3)nn3cccc23)n[nH]1 ; IC50 observed: 23

For record Cc1cc(Nc2nc(Sc3ccc(NC(=O)C4CC4)cc3)nn3cc(NC(=O)CCN4CCCCC4)cc23)n[nH]1 the listed IC50 is 850

* * *

Molecular target: Aurora kinase B (Homo sapiens, UniProt Q96GD4)
Assay: Inhibition of Aurora B kinase assessed as reduction in histone H3 phosphorylation in human HCT116 cells
Note: every record was labeled by where its IC50 sits among lo: < 80 nM; med: ≥ 80 nM and < 300 nM; hi: ≥ 300 nM

| Molecule | Category |
| --- | --- |
| COCCO[C@H]1CN(CC(=O)Nc2ccc(Sc3nc(Nc4cc(C)[nH]n4)c4cccn4n3)cc2)C[C@@H]1O | lo |
| Cc1cc(Nc2nc(Sc3ccc(NC(=O)CN4CCC[C@H]4CO)cc3)nn3cccc23)n[nH]1 | med |
| Cc1cc(Nc2nc(Sc3ccc(NC(=O)C4CC4)cc3)nn3cccc23)n[nH]1 | hi |
| Cc1cc(Nc2nc(Sc3ccc(NC(=O)CN4CC(F)(F)C[C@H]4CO)cc3)nn3cccc23)n[nH]1 | lo |
| Cc1cc(Nc2nc(Sc3ccc(NC(=O)CN4C[C@H]5C[C@H]5[C@H]4CO)cc3)nn3cccc23)n[nH]1 | med |

Which category does the recorded IC50 put Cc1cc(Nc2nc(Sc3ccc(NC(=O)CNC4CC4)cc3)nn3cccc23)n[nH]1 in?
med

Record Cc1cc(Nc2nc(Sc3ccc(NC(=O)CN4CC(=NO)[C@@H](OC(C)(C)C)C4)cc3)nn3cccc23)n[nH]1 (mixture of isomers) — which class?
lo

Sort Cc1cc(Nc2nc(Sc3ccc(NC(=O)CN4CCOCC4)cc3)nn3cccc23)n[nH]1 into one of the categories.
hi

GET /class?item= Cc1cc(Nc2nc(Sc3ccc(NC(=O)C4CC4)cc3)nn3cc(NC(=O)CN4CCCC4)cc23)n[nH]1
hi

* * *

Tested on: HCT-116
Assay: Antiproliferative activity against human HCT116 cells
Format: functional, cell-based
pIC50: −log10 of the molar value.
Use 7 as the dividing line for pIC50, with the line itself on the Satisfied side and lower values as Not satisfied.

Sample answers from the record:
| Compound | Study target | Category |
| --- | --- | --- |
| Cc1cc(Nc2nc(Sc3ccc(NC(=O)CN4C[C@H](SC(C)(C)C)C[C@H]4CO)cc3)nn3cccc23)n[nH]1 | HCT-116 | Not satisfied |
| Cc1cc(Nc2nc(Sc3ccc(NC(=O)CNC4CC4)cc3)nn3cccc23)n[nH]1 | HCT-116 | Not satisfied |
| Cc1cc(Nc2nc(Sc3ccc(NC(=O)CN4C[C@H](OC5CCCC5)[C@@H](O)C4)cc3)nn3cccc23)n[nH]1 | HCT-116 | Satisfied |
| Cc1cc(Nc2nc(Sc3ccc(NC(=O)CN4C[C@H](O)[C@@H](F)C4)cc3)nn3cccc23)n[nH]1 | HCT-116 | Satisfied |

Would you say Cc1cc(Nc2nc(Sc3ccc(NC(=O)CN4CC(=NO)[C@@H](OC(C)(C)C)C4)cc3)nn3cccc23)n[nH]1 (mixture of isomers) shows pIC50 at minimum 7?
Satisfied

Given Cc1cc(Nc2nc(Sc3ccc(NC(=O)CN4C[C@H](OC(C)(C)C)[C@@H](O)C4)cc3)nn3cccc23)n[nH]1 , state whether its pIC50 is at least 7.
Satisfied
